Entry source: patent US11319309B2

- Target or system: human LPA1 (Homo sapiens)
- Sequence (Q92633 whole entry): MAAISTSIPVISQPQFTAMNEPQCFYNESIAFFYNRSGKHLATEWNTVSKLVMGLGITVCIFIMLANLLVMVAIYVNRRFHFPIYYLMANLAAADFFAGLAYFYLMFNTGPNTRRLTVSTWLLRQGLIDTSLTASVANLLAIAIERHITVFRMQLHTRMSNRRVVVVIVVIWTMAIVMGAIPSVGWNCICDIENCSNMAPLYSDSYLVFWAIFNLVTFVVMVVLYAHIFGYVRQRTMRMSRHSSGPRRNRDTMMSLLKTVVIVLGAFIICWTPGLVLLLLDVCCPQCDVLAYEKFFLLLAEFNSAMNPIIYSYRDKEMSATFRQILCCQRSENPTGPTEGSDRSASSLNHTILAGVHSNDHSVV
- Protocol: LPA1 functional antagonist assay (calcium flux)
- Study conditions: CHO cells overexpressing human LPA1; inhibition of calcium flux induced by 10 nM LPA; read-out: hLPA1 IC50
pIC50: −log10 of the molar value.
Recorded metric: pIC50

Recorded results for 4 compounds are shown here.
Incoming: Provide pIC50 value for the following compound: CCOc1ccnc(NCc2c(C)noc2-c2ccc(O[C@H]3CCC[C@H](C(=O)O)C3)c(C)n2)n1
Outgoing: 7.59

Incoming: Provide pIC50 value for the following compound: Cc1cc(-c2ccccc2)nc(NCc2c(C)noc2-c2ccc(O[C@H]3CCC[C@H](C(=O)O)C3)cn2)n1
Outgoing: 7.80

Incoming: Provide pIC50 value for the following compound: Cc1nc(-c2onc(C)c2CNc2ncnc(C3CCC3)n2)ccc1O[C@H]1CCC[C@H](C(=O)O)C1
Outgoing: 7.19

Incoming: Provide pIC50 value for the following compound: Cc1noc(-c2ccc(O[C@H]3CCC[C@](F)(C(=O)O)C3)cn2)c1CNc1nccc(-c2ccccc2)n1
Outgoing: 8.11

A = Cc1nc(-c2onc(C)c2CNc2ncnc(C3CC3)n2)ccc1O[C@H]1CCC[C@H](C(=O)O)C1
B = Cc1noc(-c2ccc(O[C@H]3CCC[C@H](C(=O)O)C3)cn2)c1CNc1nccc(-c2ccccc2)n1 [Example 1]
C = Cc1noc(-c2ccc(O[C@H]3CCC[C@H](C(=O)O)C3)cn2)c1CNc1nccc(Oc2ccccc2)n1
Incoming: Hey, quick one: sort these by pIC50, low to high? Sort and list the labels as requested.
Outgoing: A, B, C
(A: 7.12, B: 7.85, C: 8.22)

---

- Target or system: UniProtKB Q92633
- Protocol: LPA1 functional antagonist assay (calcium flux)
- Study conditions: CHO cells overexpressing human LPA1; inhibition of calcium flux induced by 10 nM LPA; read-out: hLPA1 IC50
- Protocol: The effectiveness of compounds of the present invention as LPA1 inhibitors can be determined in an LPA1 functional antagonist assay as follows: Chinese hamster ovary cells overexpressing human LPA1 were plated overnight (15,000 cells/well) in poly-D-lysine coated 384-well microplates (Greiner bio-one, Cat #781946) in DMEM/F12 medium (Gibco, Cat #11039). […] IC50 values were determined by fitting data to a 4-parameter logistic equation (GraphPad Prism, San Diego Calif.).
pIC50: −log10 of the molar value.
Recorded metric: pIC50

Recorded results for 3 compounds are shown here.
Incoming: Provide pIC50 value for the following compound: Cc1noc(-c2ccc(O[C@H]3CCC[C@@H](C(=O)O)C3)cn2)c1CNc1nccc(-c2ccccc2)n1 [Example 4]
Outgoing: 7.41

Incoming: Provide pIC50 value for the following compound: Cc1noc(-c2ccc(O[C@H]3CCC[C@H](C(=O)O)C3)cn2)c1CNc1nccc(C2CC2)n1 [Example 10]
Outgoing: 7.74

Incoming: Provide pIC50 value for the following compound: Cc1cc(Oc2ccccc2)nc(NCc2c(C)noc2-c2ccc(O[C@H]3CCC[C@H](C(=O)O)C3)cn2)n1 [Example 9]
Outgoing: 7.70

P = Cc1nc(-c2onc(C)c2CNc2ncnc(C(C)C)n2)ccc1O[C@H]1CCC[C@H](C(=O)O)C1 [Example 2]
Q = Cc1noc(-c2ccc(O[C@H]3CCC[C@H](C(=O)O)C3)cn2)c1CNc1cc(-c2ccccc2)ccn1 [Example 5]
Incoming: Select the item with the higher value of pIC50 from the options P and Q listed. // respond with label for picked entry
Outgoing: Q
(Q: 7.68, P: 7.37)

I = Cc1cc(OC(C)C)nc(NCc2c(C)noc2-c2ccc(O[C@H]3CCC[C@H](C(=O)O)C3)cn2)n1 [Example 11]
II = Cc1noc(-c2ccc(O[C@H]3CCC[C@H](C(=O)O)C3)cn2)c1CNc1ncnc(C2CC2)n1 [Example 25]
Incoming: Select the item with the higher value of pIC50 from the options I and II listed. // respond with label for picked entry
Outgoing: I
(I: 7.77, II: 7.54)

---

- Target or system: human LPA1 (Homo sapiens)
- Protocol: LPA1 functional antagonist assay (calcium flux)
- Study conditions: CHO cells overexpressing human LPA1; inhibition of calcium flux induced by 10 nM LPA; read-out: hLPA1 IC50
pIC50: −log10 of the molar value.
Recorded metric: pIC50

Incoming: Provide pIC50 value for the following molecule: Cc1noc(-c2ccc(O[C@H]3CCC[C@H](C(=O)O)C3)cn2)c1CNc1nccc(-c2ccccc2)n1 [Example 3]
Outgoing: 7.74

I = Cc1cnc(NCc2c(C)noc2-c2ccc(O[C@H]3CCC[C@H](C(=O)O)C3)cn2)nc1-c1ccccc1 [Example 15]
II = Cc1noc(-c2ccc(O[C@@H]3CCC[C@@H](C(=O)O)C3)cc2)c1CNc1nccc(-c2ccccc2)n1 [Example 22]
III = Cc1noc(-c2ccc(O[C@H]3CCC[C@@H](C(=O)O)C3)cn2)c1CNc1nccc(-c2ccccc2)n1 [Example 16]
Incoming: Hey, quick one: sort these by pIC50, low to high? Sort and list the labels as requested.
Outgoing: II, III, I

---

- Target or system: UniProtKB Q92633
- Protocol: LPA1 functional antagonist assay (calcium flux)
- Study conditions: CHO cells overexpressing human LPA1; inhibition of calcium flux induced by 10 nM LPA; read-out: hLPA1 IC50
Recorded metric: IC50 (nM)

Recorded results for 4 compounds are shown here.
Incoming: Give measured IC50 for Cc1noc(-c2ccc(O[C@H]3CCC[C@H](C(=O)O)C3)cn2)c1CNc1nccc(-c2ccccn2)n1 [Example 13] (UniProtKB Q92633).
Outgoing: 32

Incoming: Give measured IC50 for Cc1noc(-c2ccc(O[C@H]3CCC[C@H](C(=O)O)C3)cn2)c1CNc1ncnc(C(C)C)n1 [Example 26] (UniProtKB Q92633).
Outgoing: 38

Incoming: Give measured IC50 for Cc1noc(-c2ccc(O[C@H]3CCC[C@H](C(=O)O)C3)cn2)c1CNc1ncc(F)c(NC(C)C)n1 [Example 24] (UniProtKB Q92633).
Outgoing: 32

Incoming: Give measured IC50 for Cc1noc(-c2ccc(O[C@H]3CCC[C@H](C(=O)O)C3)cn2)c1CNc1ncnc(C2CCCC2)n1 [Example 28] (UniProtKB Q92633).
Outgoing: 24

I = Cc1noc(-c2ccc(O[C@H]3CCC[C@H](C(=O)O)C3)cn2)c1CNc1ncnc(C2CCC2)n1 [Example 27]
II = Cc1nc(-c2onc(C)c2CNc2ncnc(C3CCCC3)n2)ccc1O[C@H]1CCC[C@H](C(=O)O)C1 [Example 21]
III = Cc1nc(-c2onc(C)c2CNc2ncc(F)c(NC(C)C)n2)ccc1O[C@H]1CCC[C@H](C(=O)O)C1 [Example 18]
Incoming: Place the items in sequence of falling IC50. Sort and list the labels as requested.
Outgoing: III, II, I
(III: 88 nM, II: 60 nM, I: 33 nM)

---

- Target or system: human LPA1 (Homo sapiens)
- Protocol: LPA1 functional antagonist assay (calcium flux)
- Study conditions: CHO cells overexpressing human LPA1; inhibition of calcium flux induced by 10 nM LPA; read-out: hLPA1 IC50
Recorded metric: IC50 (nM)

Incoming: Provide IC50 value for the following compound: CCOc1ccnc(NCc2c(C)noc2-c2ccc(O[C@H]3CCC[C@H](C(=O)O)C3)cn2)n1 [Example 23]
Outgoing: 14

a = Cc1cc(N2CCCCC2)nc(NCc2c(C)noc2-c2ccc(O[C@H]3CCC[C@H](C(=O)O)C3)cn2)n1 [Example 12]
b = Cc1nc(-c2onc(C)c2CNc2nccc(-c3ccccn3)n2)ccc1O[C@H]1CCC[C@H](C(=O)O)C1 [Example 14]
Incoming: Select the item with the higher value of IC50 from the options a and b listed. // respond with label for picked entry
Outgoing: a

I = Cc1noc(-c2ccc(O[C@@H]3CCC[C@H](C(=O)O)C3)cc2)c1COc1nccc(-c2ccccc2)n1 (racemic) [Example 29]
II = Cc1noc(-c2ccc(O[C@@H]3CCC[C@@H](C(=O)O)C3)cc2)c1COc1nccc(-c2ccccc2)n1 (racemic) [Example 30]
Incoming: Please indicate which item has the smaller measured IC50: I versus II // respond with label for picked entry
Outgoing: II
